Item-by-item account of EC50 (% of hG-CSF) non-conjugated
assay.system: T1, human G-CSF receptor (human, UniProt Q99062 25-836)
T1 sequence (looked up): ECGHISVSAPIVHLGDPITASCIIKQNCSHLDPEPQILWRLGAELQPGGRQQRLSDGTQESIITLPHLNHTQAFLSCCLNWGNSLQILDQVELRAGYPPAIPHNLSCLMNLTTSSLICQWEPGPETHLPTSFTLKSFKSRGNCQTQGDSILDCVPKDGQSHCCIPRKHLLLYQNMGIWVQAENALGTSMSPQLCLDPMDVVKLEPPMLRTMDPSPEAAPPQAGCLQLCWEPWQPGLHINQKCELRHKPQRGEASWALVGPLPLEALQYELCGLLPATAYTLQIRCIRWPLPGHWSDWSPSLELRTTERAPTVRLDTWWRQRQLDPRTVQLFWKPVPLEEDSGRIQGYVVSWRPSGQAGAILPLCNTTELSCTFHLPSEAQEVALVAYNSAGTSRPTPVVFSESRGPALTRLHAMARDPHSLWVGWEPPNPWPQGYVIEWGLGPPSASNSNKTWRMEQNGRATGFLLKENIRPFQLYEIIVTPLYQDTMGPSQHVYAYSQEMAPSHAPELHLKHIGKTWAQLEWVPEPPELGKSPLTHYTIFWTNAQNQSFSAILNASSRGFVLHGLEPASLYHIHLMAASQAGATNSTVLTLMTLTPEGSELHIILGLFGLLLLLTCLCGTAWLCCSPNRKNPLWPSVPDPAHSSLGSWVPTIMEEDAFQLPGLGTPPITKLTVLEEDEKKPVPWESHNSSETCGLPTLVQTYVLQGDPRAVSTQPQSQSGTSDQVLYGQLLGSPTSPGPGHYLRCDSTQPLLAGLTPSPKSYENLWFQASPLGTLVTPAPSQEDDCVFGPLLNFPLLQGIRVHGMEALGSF
procedure.text: cell-based or functional assay

Solved cases below.
[
  {
    "binder": "G-CSF variant K16/34/40R Q90K T105K Q120K, non-conjugated (ligand) TPLGPASSLPQSFLLRCLEQVRKIQGDGAALQERLCATYRLCHPEELVLLGHSLGIPWAPLSSCPSQALQLAGCLSQLHSGLFLYQGLLKALEGISPELGPTLDKLQLDVADFATTIWQKMEELGMAPALQPTQGAMPAFASAFQRRAGGVLVASHLQSFLEVSYRVLRHLAQP",
    "EC50 (% of hG-CSF) non-conjugated": "10 % of hG-CSF"
  },
  {
    "binder": "G-CSF variant K16/34/40R S80K, non-conjugated (ligand) TPLGPASSLPQSFLLRCLEQVRKIQGDGAALQERLCATYRLCHPEELVLLGHSLGIPWAPLSSCPSQALQLAGCLSQLHKGLFLYQGLLQALEGISPELGPTLDTLQLDVADFATTIWQQMEELGMAPALQPTQGAMPAFASAFQRRAGGVLVASHLQSFLEVSYRVLRHLAQP",
    "EC50 (% of hG-CSF) non-conjugated": "10 % of hG-CSF"
  },
  {
    "binder": "G-CSF variant 34Q, non-conjugated (ligand) TPLGPASSLPQSFLLKCLEQVRKIQGDGAALQEQLCATYKLCHPEELVLLGHSLGIPWAPLSSCPSQALQLAGCLSQLHSGLFLYQGLLQALEGISPELGPTLDTLQLDVADFATTIWQQMEELGMAPALQPTQGAMPAFASAFQRRAGGVLVASHLQSFLEVSYRVLRHLAQP",
    "EC50 (% of hG-CSF) non-conjugated": "70 % of hG-CSF"
  },
  {
    "binder": "G-CSF variant K16/34/40R Q70K T105K Q120K, non-conjugated (ligand) TPLGPASSLPQSFLLRCLEQVRKIQGDGAALQERLCATYRLCHPEELVLLGHSLGIPWAPLSSCPSQALKLAGCLSQLHSGLFLYQGLLQALEGISPELGPTLDKLQLDVADFATTIWQKMEELGMAPALQPTQGAMPAFASAFQRRAGGVLVASHLQSFLEVSYRVLRHLAQP",
    "EC50 (% of hG-CSF) non-conjugated": "10 % of hG-CSF"
  },
  {
    "binder": "G-CSF variant K34/40R, non-conjugated (ligand) TPLGPASSLPQSFLLKCLEQVRKIQGDGAALQERLCATYRLCHPEELVLLGHSLGIPWAPLSSCPSQALQLAGCLSQLHSGLFLYQGLLQALEGISPELGPTLDTLQLDVADFATTIWQQMEELGMAPALQPTQGAMPAFASAFQRRAGGVLVASHLQSFLEVSYRVLRHLAQP",
    "EC50 (% of hG-CSF) non-conjugated": "50 % of hG-CSF"
  }
]

IN: Please report the recorded EC50 (% of hG-CSF) non-conjugated for G-CSF variant K16/34/40R R147K, non-conjugated (ligand) TPLGPASSLPQSFLLRCLEQVRKIQGDGAALQERLCATYRLCHPEELVLLGHSLGIPWAPLSSCPSQALQLAGCLSQLHSGLFLYQGLLQALEGISPELGPTLDTLQLDVADFATTIWQQMEELGMAPALQPTQGAMPAFASAFQRKAGGVLVASHLQSFLEVSYRVLRHLAQP .
OUT: 20 % of hG-CSF

Where do these numbers come from? They come from patent US20030118612A1.
